# EXPERIMENTAL SYSTEM: T1, RST domain of Radical-Induced Cell Death1 (RCD1), RCD1-RST(499-572) (Arabidopsis, UniProt Q8RY59 499-572)
# T1 sequence (looked up): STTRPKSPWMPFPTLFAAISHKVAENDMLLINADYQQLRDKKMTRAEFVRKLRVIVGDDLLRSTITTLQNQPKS
# PROTOCOL SUMMARY: ITC
PROPERTY NAME: Kd (nM)
The answer is to be given in nM; state only the numeric part.

Exercise: Quickly give me recorded Kd for ATPEISSYPMMMNPAMMDGSKSACDGLDDLIFWEDLYTS (domain or fragment, Arabidopsis thaliana, UniProt Q9SQQ6 300-338, looked up) [ANAC046(300-338), fragment containing AD2/M5 with its context]
Solution: 120
